Reference for the values: paper PMC7430634

# TARGET_OR_TEST_SYSTEM: Rap_(pLS20) (Bacillus subtilis plasmid pLS20)
# ASSAY: fluorescence polarisation; equilibrium competition: native Phr*_(pLS20) 0.6–1250 μM against 10 μM Rap_(pLS20) and 50 nM 6-FAM-Phr*_(pLS20); 20 mM Tris pH 7.5, 150 mM NaCl, 1 mM DTT, 0.01% Triton X-100; 25°C
MEASUREMENT_KIND: pIC50
Give bare numbers, as −log10 of the molar value.

# input Recorded pIC50 of QKGMY [Phr*_(pLS20) peptide (QKGMY)] , please.
# output 4.57
